Please respond with reported log10 of Kd for every item in the list.
- study.target: T1, eIF4E (residues 69–248), purified (Drosophila melanogaster, UniProt P48598-2 69-248)
- T1 construct: eIF4E, Drosophila melanogaster, residues 69–248; the methods say the tag was cleaved with HRV3C; also called truncated eIF4E; eIF4E trunc; not shown: His6, N-terminal, cleaved
- T1 sequence (looked up): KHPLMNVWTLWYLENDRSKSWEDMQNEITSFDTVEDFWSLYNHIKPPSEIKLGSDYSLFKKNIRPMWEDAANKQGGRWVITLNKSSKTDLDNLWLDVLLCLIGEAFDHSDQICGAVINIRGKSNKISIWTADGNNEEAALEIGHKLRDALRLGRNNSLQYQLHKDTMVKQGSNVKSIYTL
- measurement.notes: ITC; VP-ITC, 20 °C; eIF4E (69–248, WT or mutant, 1–20 μM) in the cell, tenfold concentrated GB1-stabilized peptides titrated in; 20 mM Na-phosphate pH 7.0, 150 mM NaCl; one-site binding model
- condition.context: both partners purified
Please keep in mind that the values are log10 of Kd expressed in nM.

Req: Which measured log10 of Kd value corresponds to TKLIYERAFMKNLR (domain or fragment) [Thor C peptide fused C-terminally to GB1] ?
Resp: 3.35

Req: What would you report for CUP C+NC peptide fused C-terminally to GB1 (domain or fragment, Drosophila melanogaster, CUP, Drosophila melanogaster, canonical and non-canonical 4E-BMs; source: E. coli BL21 Star (DE3), purified (amylose, HRV3C cleavage, SEC); not shown: MBP, N-terminal, cleaved; GB1, C-terminal, kept) STGIHKPGSLRAPKAVRPTTAPVVSSKPVKSYTRSRLMDIRNGMFNALMHRSKESFVMPRIATCDDIELEGRLRRMNIWRTSDGTRFRTRSTTANLNMNNNNNNECMPAFFKNKNKPNLISDESIIQSQP ?
Resp: 0.96

Req: What would you report for TKLIYERAFMKNLRGSPLSQTPPSNVPSCLLRGT (domain or fragment) [Thor C+NC peptide fused C-terminally to GB1] ?
Resp: 0.15

Req: What would you report for ALMHRSKESFVMPRIATCDDIELEGRLRRMNIWRT (domain or fragment) [CUP L+NC peptide fused C-terminally to GB1] ?
Resp: 2.01

Req: What would you report for RYSKVDLLALRYEGKSRQRPQCSTRLELQTLGFWKI (domain or fragment) [4E-T C+NC peptide fused C-terminally to GB1] ?
Resp: 0.75
